- System: HepG2 cells
- Procedure summary: Cytotoxicity in mammalian HepG2 cell line
- Measurement parameters: Homo sapiens, HepG2, read-out: IC50 (μM) in HepG2 cells

Compound	Experimental system	IC50 / µM
COc1cc(NC(C)CCCN)c2ncccc2c1 (stereo not drawn)	HepG2 cells	17.8
CO[C@@H]1[C@@H](OC)[C@H](C)[C@@](O)(CC(=O)O)O[C@H]1[C@H](C)[C@H]1O[C@@]2(CC[C@@](C)([C@H]3CC[C@@](C)([C@@H]4O[C@@H]([C@H]5O[C@](C)(O)[C@H](C)C[C@@H]5C)C[C@@H]4O[C@@H]4C[C@H](OC)[C@@H](OC)[C@H](C)O4)O3)O2)C[C@H](O)[C@H]1C	HepG2 cells	37.2
CCNC(=O)c1noc(-c2cc(C(C)C)c(O)cc2O)c1-c1ccc(CN2CCOCC2)cc1	HepG2 cells	0.148
